experiment: Cmax in CD1 mouse at 150 mg/kg, ip measured during 15 mins to 24 hrs by LC-MS/MS analysis; assay type: ADME, organism-based; set-up: dose 150 mg/kg, route intraperitoneal; conditions: in vivo
endpoint: Cmax (µM)
# value in µM; strip the unit string

# query: Cmax of entry `O=C1NCc2ncc(-c3ccc(-c4cncc(NS(=O)(=O)c5ccc(F)cc5F)c4)s3)cc21` 1320

---

assay: Stability in human liver microsomes assessed as parent compound remaining level at 3 uM pre-incubated for 30 mins before NADPH addition by LC-MS/MS analysis; format: ADME, Microsome; settings: read-out: Stability
endpoint: remaining at 3 µM (%)
# value in %; strip the unit string

See these solved cases before continuing.
>>> number("COc1ncc(-c2ccc(-c3cnc4c(c3)CN(C)C4=O)s2)cc1[N-]S(=O)(=O)c1ccccc1[N+](=O)[O-].[Na+]")
94
>>> number("CN1Cc2cc(-c3ccc(-c4cncc([N-]S(=O)(=O)c5ccccc5C(F)(F)F)c4)s3)cnc2C1=O.[Na+]")
56

# context switch: different compound, same remaining at 3 µM
# query: remaining at 3 µM of entry `O=C1NCc2ncc(-c3ccc(-c4cncc([N-]S(=O)(=O)c5ccc(F)cc5F)c4)s3)cc21.[Na+]` 95
